Source of measurements: paper PMC10578352

biological target: SUV39H2/KMT1B (Homo sapiens, UniProt Q9H5I1); construct: the human recombinant SUV39H2 (residues 46–410, C-terminus); His (C); test: HotSpot KMT activity assay, SUV39H2; conditions: 10-dose IC50 mode; read-out: ref. cmpd. IC50, SUV39H2
Sequence (Q9H5I1 46-410): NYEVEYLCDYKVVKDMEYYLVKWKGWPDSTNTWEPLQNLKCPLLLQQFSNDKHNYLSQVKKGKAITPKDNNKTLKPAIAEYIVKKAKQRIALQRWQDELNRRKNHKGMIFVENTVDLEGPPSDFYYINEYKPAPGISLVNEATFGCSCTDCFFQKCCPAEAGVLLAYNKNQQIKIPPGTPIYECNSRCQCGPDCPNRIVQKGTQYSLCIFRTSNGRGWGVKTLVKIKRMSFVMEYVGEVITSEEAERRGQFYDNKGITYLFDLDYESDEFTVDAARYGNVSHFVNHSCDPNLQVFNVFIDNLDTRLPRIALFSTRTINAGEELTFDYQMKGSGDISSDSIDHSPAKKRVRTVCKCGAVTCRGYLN
Reported Metric: pIC50
// pIC50: -log10(molar conc.)

# compound Nc1ncnc2c1ncn2[C@@H]1O[C@H](CSCC[C@H](N)C(=O)O)[C@@H](O)[C@H]1O [SAH, S-5′-adenosyl-L-homocysteine, reference compound] ; its pIC50 = 4.43

---

So I've got a bunch of compounds here, and I need their % CePRMT9 residual activity values.
System: CePRMT9
Assay: Radioisotope-based assay (SDS-PAGE, fluorography, densitometry), CePRMT9
Type: biochemical, Caenorhabditis elegans
Settings: 100 uM; substrate GST-CeSFTB-2 (99–248), 25 °C
Experimental: Based on these outcomes, we resolved to explore the effect on the capability to inhibit PRMT9 enzymatic activity of further reduction of the distance between the pharmacophoric moieties. […] After the experiment was repeated with 100, 250, and 500 μM concentrations of each inhibitor, half inhibition was observed only at a concentration of roughly 250 μM (Figure 4d). […]. The experiments were performed as reported in the Experimental procedures section. […]
Lab book: enter the figure in %, no units written.

The recorded % CePRMT9 residual activity with CePRMT9 for O=C(NC[C@H](O)CN1CCc2ccccc2C1)c1cc(NC2COC2)ncn1 [EPZ015666, reference compound] was 139.23

Measured % CePRMT9 residual activity for this entry COC(=O)c1cc(O)c2cc(NC(=O)NCCCNC(=N)NC[C@H]3O[C@@H](n4cnc5c(N)ncnc54)[C@H](O)[C@@H]3O)ccc2c1 [1a] on CePRMT9: 19.47

Readout % CePRMT9 residual activity for COC(=O)c1cc(O)c2cc(NC(=O)NCCCCCNC(=N)NC[C@H]3O[C@@H](n4cnc5c(N)ncnc54)[C@H](O)[C@@H]3O)ccc2c1 [1c] , test system CePRMT9, was 12.31

Recorded % CePRMT9 residual activity for CSC[C@H]1O[C@@H](n2cnc3c(N)ncnc32)[C@H](O)[C@@H]1O [MTA, 5′-Deoxy-5′-(methylthio)adenosine, reference compound] on CePRMT9 was 23.57

Reported CePRMT9 % CePRMT9 residual activity for item COC(=O)c1cc(O)c2cc(NC(=O)NCCCCNC(=N)NC[C@H]3O[C@@H](n4cnc5c(N)ncnc54)[C@H](O)[C@@H]3O)ccc2c1 [1b] was 39.17

---

Biological target: human recombinant PRMT9 (Homo sapiens, UniProt Q6P2P2)
Construct: human recombinant PRMT9 (2–845; N-terminal FLAG-tag, C-terminal His6-tag); FLAG (N); His6 (C); purchased BPS BioScience 79124
Experiment: SPR binding to immobilized PRMT9
Details: 1:1 Langmuir model, 25 °C, KD = koff/kon
Protocol: To characterize the effect of compound 1j on PRMT9, we resolved to evaluate its direct binding to the target protein using surface plasmon resonance (SPR). […] The corrected sensorgrams were fitted simultaneously by kinetic analysis using the 1:1 Langmuir model of the BIAevaluation software to obtain equilibrium dissociation constants (KD) and kinetic dissociation (koff) and association (kon) constants, and the curve-fitting efficiency was evaluated by chi-square (χ^2). […]
Reported Metric: Kd (nM)
# unit: nM | format: bare number

Form: molecule = COC(=O)c1cc(O)c2cc(NC(=O)NCCCNC(=N)NC[C@H]3O[C@@H](n4cnc5c(N)ncnc54)[C@H](O)[C@@H]3O)cc(C(F)(F)F)c2c1 [1j] ; Kd = 188

---

target: PRMT3 (Homo sapiens, UniProt O60678); construct: PRMT3 (residues 2–531, C-terminus); with an N-terminal His-tag; His (N); purchased Reaction Biology Corporation; test: HotSpot radioisotope-based filter assay, PRMT3; assay type: biochemical; details: Figure 2; from IC50 values of ref 31
Sequence (O60678 2-531): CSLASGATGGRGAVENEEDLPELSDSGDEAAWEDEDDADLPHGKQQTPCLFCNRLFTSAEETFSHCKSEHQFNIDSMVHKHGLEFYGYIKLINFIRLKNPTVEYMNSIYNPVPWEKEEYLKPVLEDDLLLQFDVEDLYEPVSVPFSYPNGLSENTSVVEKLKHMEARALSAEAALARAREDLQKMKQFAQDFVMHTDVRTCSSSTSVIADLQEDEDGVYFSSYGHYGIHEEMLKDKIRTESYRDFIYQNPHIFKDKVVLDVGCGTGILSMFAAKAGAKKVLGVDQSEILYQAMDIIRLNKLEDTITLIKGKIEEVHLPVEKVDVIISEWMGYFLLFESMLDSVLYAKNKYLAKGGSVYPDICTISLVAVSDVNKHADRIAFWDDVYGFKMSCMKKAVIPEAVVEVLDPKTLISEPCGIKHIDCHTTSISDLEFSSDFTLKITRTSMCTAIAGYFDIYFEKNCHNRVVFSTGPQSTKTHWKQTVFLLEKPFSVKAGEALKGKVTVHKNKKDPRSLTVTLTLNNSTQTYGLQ
Would you kindly list selectivity index for PRMT7 over PRMT3 for each of these molecules?
# value in fold; strip the unit string

The reported value for "COC(=O)c1cc(O)c2cc(NC(=O)NCCCCNC(=N)NCC[C@H]3O[C@@H](n4cnc5c(N)ncnc54)[C@H](O)[C@@H]3O)ccc2c1" in terms of selectivity index for PRMT7 over PRMT3 is 46

// selectivity index for PRMT7 over PRMT3 lookup, molecule = "COC(=O)c1cc(O)c2cc(NC(=O)NCCCCCCCNC(=N)NC[C@H]3O[C@@H](n4cnc5c(N)ncnc54)[C@H](O)[C@@H]3O)ccc2c1" , result: 20

Looking up "COC(=O)c1cc(O)c2cc(NC(=O)NCCCCNC(=N)NCCC[C@H]3O[C@@H](n4cnc5c(N)ncnc54)[C@H](O)[C@@H]3O)ccc2c1" , I see its selectivity index for PRMT7 over PRMT3 listed as 3

In plain terms, "COC(=O)c1cc(O)c2cc(NC(=O)NCCCCCNC(=N)NC[C@H]3O[C@@H](n4cnc5c(N)ncnc54)[C@H](O)[C@@H]3O)ccc2c1" has a documented selectivity index for PRMT7 over PRMT3 of 97

---

target: PRMT6 (Homo sapiens); construct: PRMT6 (residues 2–375, C-terminus); with an N-terminal GST-tag; GST (N); purchased Reaction Biology Corporation; test: HotSpot radioisotope-based filter assay, PRMT6; type: biochemical; conditions: Figure 2; from IC50 values of ref 31
Sequence (Q96LA8 2-375): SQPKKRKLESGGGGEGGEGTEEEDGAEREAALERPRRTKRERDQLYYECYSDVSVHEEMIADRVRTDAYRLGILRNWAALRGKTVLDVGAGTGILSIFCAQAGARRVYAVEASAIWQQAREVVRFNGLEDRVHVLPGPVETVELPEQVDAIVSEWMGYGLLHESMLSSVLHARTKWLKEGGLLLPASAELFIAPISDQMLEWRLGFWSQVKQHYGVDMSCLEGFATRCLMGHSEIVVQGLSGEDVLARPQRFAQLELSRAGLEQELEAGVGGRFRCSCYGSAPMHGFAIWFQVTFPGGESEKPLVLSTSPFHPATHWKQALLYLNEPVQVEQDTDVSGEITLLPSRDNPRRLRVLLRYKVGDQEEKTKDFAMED
Reported Metric: selectivity index for PRMT7 over PRMT6 (fold)
Return type: number; implicit unit fold.

selectivity index for PRMT7 over PRMT6 reading for COC(=O)c1cc(O)c2cc(NC(=O)NCCCCNC(=N)NCC[C@H]3O[C@@H](n4cnc5c(N)ncnc54)[C@H](O)[C@@H]3O)ccc2c1 [1f] : 100

The recorded selectivity index for PRMT7 over PRMT6 for COC(=O)c1cc(O)c2cc(NC(=O)NCCCCCCCNC(=N)NC[C@H]3O[C@@H](n4cnc5c(N)ncnc54)[C@H](O)[C@@H]3O)ccc2c1 [1e] is 56

Summary for this compound, COC(=O)c1cc(O)c2cc(NC(=O)NCCCCNC(=N)NCCC[C@H]3O[C@@H](n4cnc5c(N)ncnc54)[C@H](O)[C@@H]3O)ccc2c1 [1g] : selectivity index for PRMT7 over PRMT6 is 0.93

selectivity index for PRMT7 over PRMT6 reported for this compound COC(=O)c1cc(O)c2cc(NC(=O)NCCCCCNC(=N)NC[C@H]3O[C@@H](n4cnc5c(N)ncnc54)[C@H](O)[C@@H]3O)ccc2c1 [1c] : 455

---

For each record, write down the corresponding IC50.
Molecular target: human recombinant PRMT9 (Homo sapiens)
Construct: human recombinant PRMT9 (2–845; N-terminal FLAG-tag, C-terminal His6-tag); FLAG (N); His6 (C)
Sequence (Q6P2P2 2-845): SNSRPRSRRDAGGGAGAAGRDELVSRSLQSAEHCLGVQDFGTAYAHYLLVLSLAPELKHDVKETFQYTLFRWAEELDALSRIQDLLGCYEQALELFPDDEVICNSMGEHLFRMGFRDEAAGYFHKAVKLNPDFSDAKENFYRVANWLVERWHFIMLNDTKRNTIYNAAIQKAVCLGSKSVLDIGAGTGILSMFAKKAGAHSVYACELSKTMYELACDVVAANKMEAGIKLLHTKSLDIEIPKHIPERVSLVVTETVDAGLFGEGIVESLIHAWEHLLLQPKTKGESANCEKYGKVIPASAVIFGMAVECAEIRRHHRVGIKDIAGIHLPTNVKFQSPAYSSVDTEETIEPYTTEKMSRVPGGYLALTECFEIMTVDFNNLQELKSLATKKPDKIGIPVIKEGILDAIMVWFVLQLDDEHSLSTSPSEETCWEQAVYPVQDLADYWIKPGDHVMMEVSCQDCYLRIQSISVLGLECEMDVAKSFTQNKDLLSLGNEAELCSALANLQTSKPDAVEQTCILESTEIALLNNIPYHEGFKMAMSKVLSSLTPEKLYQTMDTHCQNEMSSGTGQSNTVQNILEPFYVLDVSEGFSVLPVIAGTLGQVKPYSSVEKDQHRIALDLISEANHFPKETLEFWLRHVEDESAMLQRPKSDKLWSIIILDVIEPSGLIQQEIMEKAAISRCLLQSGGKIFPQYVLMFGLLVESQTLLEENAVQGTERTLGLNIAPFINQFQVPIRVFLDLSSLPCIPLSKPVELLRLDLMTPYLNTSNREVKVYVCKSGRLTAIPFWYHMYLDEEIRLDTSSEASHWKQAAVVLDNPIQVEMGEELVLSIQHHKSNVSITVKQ
Test: AlphaLISA PRMT9 activity assay (modified BPS kit, biotinylated SF3B2 peptide)
Conditions: PRMT9 0.105 μM, biotinylated SF3B2 (500–519) peptide 100 nM, SAM 25 μM
Experimental: Accordingly, all the enzymatic inhibition data were obtained by performing the assays in these optimized conditions. The reaction was incubated for 60 min. […] The 100% activity (positive control) was reached using vehicle (DMSO), while 0% activity (negative control) was obtained without the protein. Data were analyzed by using Excel and Prism software. Values obtained for each compound are mean ± SD determined for three separate experiments.

Record summary for "COC(=O)c1cc(O)c2cc(NC(=O)NCCCCNC(=N)NC[C@H]3O[C@@H](n4cnc5c(N)ncnc54)[C@H](O)[C@@H]3O)ccc2c1" : reported IC50 = 1.32 µM

Given item "COC(=O)c1cc(O)c2cc(NC(=O)NCCCNC(=N)NC[C@H]3O[C@@H](n4cnc5c(N)ncnc54)[C@H](O)[C@@H]3O)ccc2c1" , the value recorded as its IC50 is 0.89 µM

# IC50 (molecule: "COC(=O)c1cc(O)c2cc(NC(=O)NCCCCNC(=N)NCCC[C@H]3O[C@@H](n4cnc5c(N)ncnc54)[C@H](O)[C@@H]3O)ccc2c1" ) is > 10 µM

Record summary for "COC(=O)c1cc(O)c2cc(NC(=O)NCCCCNC(=N)NC/C=C/[C@H]3O[C@@H](n4cnc5c(N)ncnc54)[C@H](O)[C@@H]3O)ccc2c1" : reported IC50 = 9.3 µM

Just so you know, measured IC50 for "COC(=O)c1cc(O)c2cc(NC(=O)NCCCNC(=N)NC[C@H]3O[C@@H](n4cnc5c(N)ncnc54)[C@H](O)[C@@H]3O)cc(C(F)(F)F)c2c1" came out at 0.2 µM

Recorded IC50 (molecule "COC(=O)c1cc(O)c2cc(NC(=O)NCCCCCNC(=N)NC[C@H]3O[C@@H](n4cnc5c(N)ncnc54)[C@H](O)[C@@H]3O)ccc2c1" ): 5.8 µM

For "COC(=O)c1cc(O)c2cc(NC(=O)NCCCCCCNC(=N)NC[C@H]3O[C@@H](n4cnc5c(N)ncnc54)[C@H](O)[C@@H]3O)ccc2c1" the molecule record lists IC50 as 1.02 µM
